# Target Or Test System: Secreted aspartic protease 2 (Candida albicans, UniProt P0CS83)
# Sequence (P0CS83 whole entry): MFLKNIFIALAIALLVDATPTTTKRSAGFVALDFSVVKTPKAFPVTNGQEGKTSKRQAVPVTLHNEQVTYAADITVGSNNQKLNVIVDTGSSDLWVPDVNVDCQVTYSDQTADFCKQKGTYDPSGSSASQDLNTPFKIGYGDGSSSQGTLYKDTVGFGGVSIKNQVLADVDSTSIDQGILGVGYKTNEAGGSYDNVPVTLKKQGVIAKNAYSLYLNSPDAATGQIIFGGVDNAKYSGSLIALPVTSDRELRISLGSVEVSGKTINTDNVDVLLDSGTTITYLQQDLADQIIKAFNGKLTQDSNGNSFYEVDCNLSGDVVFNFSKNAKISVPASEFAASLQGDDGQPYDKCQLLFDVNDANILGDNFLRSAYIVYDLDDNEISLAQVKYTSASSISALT
# Assay Explanation: Inhibition of candida albicans SAP2
Endpoint Label: Ki (nM)
Kindly provide the numeric value in nM only, without the unit symbol.

Can you look up the measured Ki of CCCCNC(=O)[C@H](C[C@H](O)[C@H](CC1CCCCC1)NC(=O)[C@H](CCCC)N1CCN(C(=O)N2CCN(C)CC2)[C@H](Cc2ccccc2)C1=O)C(C)C for me?
12

* * *

# Target Or Test System: Secreted aspartic protease 2 (Candida albicans)
# Assay Explanation: Inhibition of candida albicans SAP2 using 0.05% BSA as substrate by spectrophotometric analysis
Endpoint Label: pIC50
Entry type: numeric. Quantity: pIC50, the -log10 of concentration in molar units.

CC(C)CC(=O)N[C@H](C(=O)N[C@H](C(=O)N[C@@H](CC(C)C)[C@@H](O)CC(=O)N[C@@H](C)C(=O)N[C@@H](CC(C)C)[C@@H](O)CC(=O)O)C(C)C)C(C)C [PEPSTATIN] ... 7.05
CC(C)C[C@@H](CO)NC(=O)C1O[C@H]2CN(Cc3ccccc3)C(=O)[C@@H]1O2 (stereo partly specified) ... 6.26
COC(=O)[C@@H](CC(C)C)N1C[C@@H]2O[C@@H](C(=O)N3CCCCC3)[C@@H](O2)C1=O ... 6.05
CC(C)C[C@@H](CO)NC(=O)C1O[C@@H]2CN(Cc3ccccc3)C(=O)[C@H]1O2 (stereo partly specified) ... 5.96

Proceeding to the next molecule to report its pIC50.
API: value(readout=pIC50, system=Secreted aspartic protease 2 (Candida albicans)) for record O=C([C@@H]1O[C@H]2CN(Cc3ccccc3)C(=O)[C@@H]1O2)N1CCCCC1
7.52

* * *

# Target Or Test System: Secreted aspartic protease 2 (Candida albicans)
# Assay Explanation: Inhibition of candida albicans SAP2 using 0.05% BSA as substrate by spectrophotometric analysis
Endpoint Label: IC50 (nM)
Kindly provide the numeric value in nM only, without the unit symbol.

Consider the worked cases shown below.
COC(=O)[C@@H](CC(C)C)N1C[C@H]2O[C@H](C(=O)N3CCCCC3)[C@H](O2)C1=O ... 740
O=C([C@H]1O[C@@H]2CN(Cc3ccccc3)C(=O)[C@H]1O2)N1CCCCC1 ... 980

Proceeding to the next molecule to report its IC50.
Can you look up the measured IC50 of COC(=O)[C@H](CC(C)C)N1C[C@@H]2O[C@@H](C(=O)N3CCCCC3)[C@@H](O2)C1=O for me?
900

* * *

Entries and their pIC50 values follow.
# Target Or Test System: Secreted aspartic protease 2 (Candida albicans)
# Assay Explanation: Inhibition of candida albicans SAP2 using 0.05% BSA as substrate by spectrophotometric analysis
pIC50: −log10 of the molar value.

Consider the worked cases shown below.
CC(C)C[C@H](CO)NC(=O)C1O[C@@H]2CN(Cc3ccccc3)C(=O)[C@H]1O2 (stereo partly drawn) ... < 5.00
COC(=O)[C@H](CC(C)C)N1C[C@H]2O[C@H](C(=O)N3CCCCC3)[C@H](O2)C1=O ... < 5.00

Proceeding to the next compound to report its pIC50.
Can you look up the measured pIC50 of CC(C)C[C@H](CO)NC(=O)C1O[C@H]2CN(Cc3ccccc3)C(=O)[C@@H]1O2 (stereo partly drawn) for me?
< 5.00

Values from ChEMBL document CHEMBL2203280
